Parameter: predicted hepatic blood clearance at […]. Scope: all listed entries.
Assay: Intrinsic clearance in rat hepatocytes measured for 90 mins by LC-MS/MS analysis
Type: ADME, cell-based, Hepatocyte
Details: read-out: CLH (converted)
Your answer is read as mL/min/kg, so omit the unit and give the number.

Look at this molecule and give its reported predicted hepatic blood clearance at […]. `CC[C@@H](NC(=O)c1cn(-c2ccccc2F)c2nc(N3C[C@@H](O)CC3=O)ccc2c1=O)C(F)(F)F` 31.7

Look at this molecule and give its reported predicted hepatic blood clearance at […]. `CC[C@@H](NC(=O)c1cn(-c2c(F)cccc2F)c2nc(N3C[C@@H](O)CC3=O)ccc2c1=O)C(F)(F)F` 21.7

Look at this molecule and give its reported predicted hepatic blood clearance at […]. `CC[C@H](NC(=O)c1cn(-c2ncc(F)cc2F)c2nc(N3C[C@@H](O)CC3=O)ccc2c1=O)C(F)(F)F` 6.67

Look at this molecule and give its reported predicted hepatic blood clearance at […]. `CC[C@@H](NC(=O)c1cn(-c2ccc(F)cc2F)c2nc(N3C[C@@H](O)CC3=O)ccc2c1=O)C(F)(F)F` 22.7

Look at this molecule and give its reported predicted hepatic blood clearance at […]. CC[C@H](NC(=O)c1cn(-c2c(F)cc(F)cc2F)c2nc(N3CC4CC4(O)C3)ccc2c1=O)C(F)(F)F (mixture of isomers) 56.7
